Values were extracted from ChEMBL document CHEMBL1150387.

# Tested target: Inhibitor of nuclear factor kappa-B kinase subunit beta (Homo sapiens) (UniProt O14920)
# Sequence (O14920 whole entry): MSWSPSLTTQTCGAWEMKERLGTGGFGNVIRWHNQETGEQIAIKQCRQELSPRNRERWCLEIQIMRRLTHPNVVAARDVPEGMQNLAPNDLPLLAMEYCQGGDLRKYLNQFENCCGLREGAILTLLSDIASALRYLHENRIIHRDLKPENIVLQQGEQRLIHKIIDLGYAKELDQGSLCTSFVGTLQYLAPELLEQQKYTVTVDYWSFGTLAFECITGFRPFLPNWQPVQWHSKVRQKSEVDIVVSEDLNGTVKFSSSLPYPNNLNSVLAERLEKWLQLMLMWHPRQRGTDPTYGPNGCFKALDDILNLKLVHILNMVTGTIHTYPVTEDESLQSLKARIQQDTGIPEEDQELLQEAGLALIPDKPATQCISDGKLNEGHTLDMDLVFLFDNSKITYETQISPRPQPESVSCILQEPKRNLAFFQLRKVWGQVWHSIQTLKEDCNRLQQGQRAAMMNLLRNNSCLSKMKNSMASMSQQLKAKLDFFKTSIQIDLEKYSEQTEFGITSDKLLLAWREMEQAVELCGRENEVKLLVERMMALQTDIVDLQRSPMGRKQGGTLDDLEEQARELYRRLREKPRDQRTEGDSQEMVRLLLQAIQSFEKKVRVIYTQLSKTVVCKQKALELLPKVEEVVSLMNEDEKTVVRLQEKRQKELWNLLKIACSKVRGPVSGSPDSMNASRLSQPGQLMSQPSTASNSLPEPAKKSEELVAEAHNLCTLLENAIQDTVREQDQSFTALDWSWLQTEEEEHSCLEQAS
# Method notes: Inhibition of IKK-beta at 10 uM by HTRF assay relative to control
Quantity name: inhibition (%)

- Nc1nc(Nc2ccccc2)cc(N2CCC(C(=O)NCCc3ccccn3)CC2)n1: 1
- Cc1cccc(N(C)c2cc(Nc3cccc(C(=O)N(C)CCc4ccccn4)c3)ncn2)c1: 8
- COC(=O)C(CO)NC(=O)[C@@H]1CCCN1c1nccc(Oc2cccc(C)c2)n1 (stereo not given in full): 1
- Cc1cccc(Nc2nccc(Nc3cccc(C(=O)N(C)CCc4ccccn4)c3)n2)c1: 9
- Cc1cccc(Nc2nccc(Nc3cccc(C(=O)NCc4ccc(N(C)C)cc4)c3)n2)c1: 2

* * *

Listed compounds paired with reported inhibition
# Tested target: Tyrosine-protein kinase Lck (Homo sapiens) (UniProt P06239)
# Sequence (P06239 2-509 limits assumed): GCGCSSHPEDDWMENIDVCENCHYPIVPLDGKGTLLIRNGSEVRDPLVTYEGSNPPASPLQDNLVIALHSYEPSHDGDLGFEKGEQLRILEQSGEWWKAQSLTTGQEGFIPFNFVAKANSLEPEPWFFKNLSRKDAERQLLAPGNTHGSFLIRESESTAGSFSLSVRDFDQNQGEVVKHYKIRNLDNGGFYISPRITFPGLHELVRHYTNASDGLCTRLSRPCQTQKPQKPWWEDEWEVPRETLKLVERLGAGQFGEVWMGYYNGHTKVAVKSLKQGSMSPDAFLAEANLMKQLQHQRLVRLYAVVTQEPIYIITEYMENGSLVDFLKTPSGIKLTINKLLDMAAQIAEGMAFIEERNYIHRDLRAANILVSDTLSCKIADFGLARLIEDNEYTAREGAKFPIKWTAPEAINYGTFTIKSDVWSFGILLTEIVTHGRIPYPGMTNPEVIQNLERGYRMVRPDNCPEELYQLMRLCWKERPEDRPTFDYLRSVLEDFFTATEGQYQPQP
# Method notes: Inhibition of Lck at 10 uM by HTRF assay relative to control
Quantity name: inhibition (%)

• O=C(NC1Cc2ccccc2C1)c1cccc(Nc2ccnc(N3CCN(c4ccccc4)CC3)n2)c1 = 0
• Cc1cccc(Nc2nccc(Nc3cccc(C(=O)NCc4ccc(N(C)C)cc4)c3)n2)c1 = 0
• CN(C)c1ccc(C(=O)N2CCN(c3ncnc4c3CN(Cc3ccccc3)CC4)CC2)c2ccccc12 = 0
• Cc1cccc(Oc2ccnc(N3CCN(C(=O)c4c(C)noc4C)CC3)n2)c1 = 0
• COC[C@@H]1CCCN1C(=O)[C@@H]1CCCN1c1cc(Nc2cccc(OC)c2)nc(N)n1 = 0
• Cc1cccc(Nc2cc(Nc3cccc(C(=O)N(CC(C)O)CC(C)O)c3)ncn2)c1 (stereo not given) = 26
• COc1ccc(-c2noc(CN3CCN(c4cc(Nc5cccc(O)c5)ncn4)CC3)n2)cc1 = 0
• CN(C)CC(C)(C)CNC(=O)C1CCN(c2cc(N3CCOCC3)nc(N)n2)CC1 = 0
• Cc1cccc(N(C)c2cc(Nc3cccc(C(=O)NCc4ccc(N(C)C)cc4)c3)ncn2)c1 = 0
• COc1cccc(Nc2cc(Nc3cccc(C(=O)N(C)CCc4ccccn4)c3)nc(N)n2)c1 = 0
• Nc1nc(Nc2ccc(C(=O)NCCc3ccncc3)cc2)cc(N2CCOCC2)n1 = 0
• COC[C@@H]1CCCN1C(=O)C1CCCN1c1cc(Nc2cccc(Br)c2)ncn1 (stereo not given in full) = 0
• Cc1ccc(CN2CCN(c3nccc(C(C#N)c4ccccn4)n3)CC2)cc1 (stereo not given) = 0
• O=C(NCc1ccncc1)c1cccc(Nc2cc(Nc3cccc(Br)c3)ncn2)c1 = 32
• CC(=O)N1CCN(C(=O)c2cccc(Nc3cc(N(C)c4cccc(C)c4)ncn3)c2)CC1 = 27
• Cc1cccc(N(C)c2cc(Nc3cccc(C(=O)N4CCCC5CCCCC54)c3)ncn2)c1 (stereo not given) = 0
• Cc1cccc(Nc2ncnc3c2CN(C(=O)c2ccc(N(C)C)c4ccccc24)CC3)c1 = 0
• Cc1cccc(CN2CCN(c3cc(N(C)c4cccc(C)c4)ncn3)CC2)c1 = 0
• CN(C)CC(C)(C)CNC(=O)c1cccc(Nc2nccc(Nc3ccc4ncsc4c3)n2)c1 = 100
• Nc1nc(Nc2ccc3ncsc3c2)cc(N2CCC[C@H]2C(=O)N[C@@H](CO)c2ccccc2)n1 = 0

* * *

# Tested target: 3-phosphoinositide-dependent protein kinase 1 (Homo sapiens)
# Method notes: Inhibition of PDK1 at 10 uM by HTRF assay relative to control
Quantity name: inhibition (%)

* COc1ccc(NC(=O)Cc2ccc(Nc3cc(N(C)c4cccc(C)c4)ncn3)cc2)cn1 | 1
* CN(C)CC(C)(C)CNC(=O)c1cccc(Nc2nccc(Nc3ccc4ncsc4c3)n2)c1 | 0
* CN(CCc1ccccn1)C(=O)c1cccc(Nc2nccc(Nc3ccc4ncsc4c3)n2)c1 | 0
* Cc1cccc(Oc2ccnc(N3CCN(CC(=O)Nc4cccc5c4CCCC5)CC3)n2)c1 | 0
* COC[C@@H]1CCCN1C(=O)[C@@H]1CCCN1c1cc(Nc2cccc(OC)c2)nc(N)n1 | 0
* COC(=O)C(CO)NC(=O)[C@@H]1CCCN1c1nccc(Oc2cccc(C)c2)n1 (stereo not given in full) | 0
* CN(CCc1ccccn1)C(=O)[C@@H]1CCCN1c1nccc(Nc2ccccc2)n1 | 0
* CC(=O)CCCCC(=O)N1CCN(c2nccc(Oc3cccc(C)c3)n2)CC1 | 2
* O=C(CN1CCN(c2ncnc3c2CN(Cc2ccccc2)CC3)CC1)Nc1cc(F)ccc1F | 0
* Cc1ccc(CN2CCN(c3nccc(C(C#N)c4ccccn4)n3)CC2)cc1 (stereo not given) | 1
* Cc1cccc(N(C)c2cc(Nc3cccc(C(=O)NCc4ccc(N(C)C)cc4)c3)ncn2)c1 | 0
* CN(CCCn1ccnc1)C(=O)[C@@H]1CCCN1c1nccc(Nc2ccccc2)n1 | 1
* COc1cccc(Nc2cc(N3CCC[C@H]3C(=O)NCCN3CCCCC3)nc(N)n2)c1 | 0
* COC[C@@H]1CCCN1C(=O)C1CCCN1c1cc(Nc2cccc(Br)c2)ncn1 (stereo not given in full) | 0
* COC[C@@H]1CCCN1C(=O)[C@@H]1CCCN1c1nccc(Nc2ccccc2)n1 | 1
* O=C(NCCc1ccc(O)cc1)c1cccc(Nc2nccc(Nc3ccc4ncsc4c3)n2)c1 | 0
* Cc1cccc(Oc2ccnc(N3CCN(C(=O)c4c(C)noc4C)CC3)n2)c1 | 0
* COc1ccc(-c2noc(CN3CCN(c4cc(Nc5cccc(O)c5)ncn4)CC3)n2)cc1 | 4
* COc1cccc(Nc2cc(Nc3cccc(C(=O)NCCCn4ccnc4)c3)nc(N)n2)c1 | 1
* Cc1cccc(N(C)c2cc(Nc3cccc(C(=O)NCc4ccncc4)c3)ncn2)c1 | 0
